Origin of the recorded values: paper PMC9146896

Values of pIC50 reported for hCA IX (Homo sapiens, UniProt Q16790) appear below.
Scale note: pIC50 = -log10(concentration in M).

Molecule	pIC50
Nc1[nH]c(=O)[nH]c(=O)c1/N=C/c1cc2ccccc2[nH]c1=O [Compound 10a]	6.60
COc1ccc2[nH]c(=O)c(/C=N/c3c(N)[nH]c(=O)[nH]c3=O)cc2c1 [Compound 10h]	6.22
COc1ccc2[nH]c(=O)c(/C=N/c3c(N)n(C)c(=O)[nH]c3=O)cc2c1 [Compound 10k]	5.89

Now consider a different molecule.
Param readout= pIC50; system= hCA IX (Homo sapiens, UniProt Q16790); entry= COc1ccc2[nH]c(=O)c(/C=N/c3c(N)n(Cc4ccccc4)c(=O)[nH]c3=O)cc2c1 [Compound 10i] ; returns value.
6.04

* * *

In this section we review reported Ki values for a set of compounds.
- Assayed System: UniProt P00918
- Experimental Details: Carbonic anhydrase inhibition, colorimetric method (BioVision CA Inhibitor Screening Kit)
Give the number; nM is assumed, so skip it.

Worked examples follow.
Compound	Ki [nM]
Cc1cccc2cc(/C=N/c3c(N)n(C)c(=S)[nH]c3=O)c(=O)[nH]c12 [Compound 10g]	1860
CCn1c(N)c(/N=C/c2cc3cccc(C)c3[nH]c2=O)c(=O)[nH]c1=O [Compound 10f]	440
COc1ccc2[nH]c(=O)c(/C=N/c3c(N)n(C)c(=S)[nH]c3=O)cc2c1 [Compound 10l]	1040

Now consider a different compound.
Param readout= Ki; system= UniProt P00918; entry= Cn1c(N)c(/N=C/c2cc3ccccc3[nH]c2=O)c(=O)[nH]c1=O [Compound 10d] ; returns value.
140

* * *

Values of pIC50 reported for hCA I (Homo sapiens, UniProt P00915) appear below.
Scale note: pIC50 = -log10(concentration in M).

Compound	pIC50
COc1ccc2[nH]c(=O)c(/C=N/c3c(N)n(C)c(=S)[nH]c3=O)cc2c1 [Compound 10l]	6.60
CCn1c(N)c(/N=C/c2cc3ccccc3[nH]c2=O)c(=O)[nH]c1=O [Compound 10c]	5.75
Cn1c(N)c(/N=C/c2cc3ccccc3[nH]c2=O)c(=O)[nH]c1=S [Compound 10e]	5.90

Param readout= pIC50; system= hCA I (Homo sapiens, UniProt P00915); entry= COc1ccc2[nH]c(=O)c(/C=N/c3c(N)n(Cc4ccccc4)c(=O)[nH]c3=O)cc2c1 [Compound 10i] ; returns value.
5.68

* * *

- Assayed System: hCA XII (Homo sapiens)
- Sequence (O43570 25-354): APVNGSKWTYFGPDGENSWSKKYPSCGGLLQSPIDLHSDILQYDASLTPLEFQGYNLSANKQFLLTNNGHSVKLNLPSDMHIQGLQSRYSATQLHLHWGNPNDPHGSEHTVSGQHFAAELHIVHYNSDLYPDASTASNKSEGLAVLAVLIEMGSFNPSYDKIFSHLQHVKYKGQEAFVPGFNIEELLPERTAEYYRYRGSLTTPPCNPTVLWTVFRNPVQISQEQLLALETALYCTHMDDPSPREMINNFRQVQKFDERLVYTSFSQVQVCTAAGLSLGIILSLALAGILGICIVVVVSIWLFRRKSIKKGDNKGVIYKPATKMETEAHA
- Experimental Details: Carbonic anhydrase inhibition, colorimetric method (BioVision CA Inhibitor Screening Kit)
- Particulars: hCA XII over hCA I
rule met means recorded Selectivity index I/XII is 3 or above; rule not met means it is below 3.

Examples from the recorded data:
Compound	Assayed System	Class Name
Cc1cccc2cc(/C=N/c3c(N)n(C)c(=S)[nH]c3=O)c(=O)[nH]c12 [Compound 10g]	hCA XII (Homo sapiens)	rule met
COc1ccc2[nH]c(=O)c(/C=N/c3c(N)n(C)c(=O)[nH]c3=O)cc2c1 [Compound 10k]	hCA XII (Homo sapiens)	rule met
COc1ccc2[nH]c(=O)c(/C=N/c3c(N)n(C)c(=S)[nH]c3=O)cc2c1 [Compound 10l]	hCA XII (Homo sapiens)	rule not met
COc1ccc2[nH]c(=O)c(/C=N/c3c(N)[nH]c(=O)[nH]c3=O)cc2c1 [Compound 10h]	hCA XII (Homo sapiens)	rule met
Nc1c(/N=C/c2cc3ccccc3[nH]c2=O)c(=O)[nH]c(=O)n1Cc1ccccc1 [Compound 10b]	hCA XII (Homo sapiens)	rule not met
CCn1c(N)c(/N=C/c2cc3cc(OC)ccc3[nH]c2=O)c(=O)[nH]c1=O [Compound 10j]	hCA XII (Homo sapiens)	rule not met

Here is the next item to consider.
Given the entry COc1ccc2[nH]c(=O)c(/C=N/c3c(N)n(Cc4ccccc4)c(=O)[nH]c3=O)cc2c1 [Compound 10i] , answer whether its Selectivity index I/XII meets or surpasses 3.
rule met
